B1: VH:VL chains; a variant is named by its letters at X, in order (parent)
chain 1: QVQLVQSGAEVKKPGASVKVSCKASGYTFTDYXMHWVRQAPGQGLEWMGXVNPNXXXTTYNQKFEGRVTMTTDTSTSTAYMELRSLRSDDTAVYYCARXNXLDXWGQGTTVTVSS
chain 2: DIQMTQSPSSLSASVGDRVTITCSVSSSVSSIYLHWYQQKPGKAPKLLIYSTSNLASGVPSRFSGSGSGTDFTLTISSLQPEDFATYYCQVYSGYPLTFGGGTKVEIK

- Variants of: B1
- MEASUREMENT DESCRIPTION: yeast display scFab, FACS + sequencing
OBSERVATION TYPE: non-specific binding call

Record excerpt, results attached:
# VARIANT SPEC, OBSERVATION TYPE, ASSAY VALUE
rows = [
    ("VTGEDDVV", "non-specific binding call", "no binding"),
    ("ARGRSDVA", "non-specific binding call", "no binding"),
    ("VAEKGSSA", "non-specific binding call", "no binding"),
    ("VETGNDLV", "non-specific binding call", "no binding"),
    ("FRGGGSAA", "non-specific binding call", "binds"),
    ("DRRGDAVY", "non-specific binding call", "no binding"),
    ("YGTRSAAD", "non-specific binding call", "no binding"),
    ("YRRGSASS", "non-specific binding call", "binds"),
]

// batch mode: one non-specific binding call value per listed entry
1. YRRRGYWA
2. YRRGSSLF
3. VKKTGDLY

Result block:
binds
binds
no binding

// batch mode: one non-specific binding call value per listed entry
1. YKGGDDLA
2. VTGGDDGY
3. DATRSSWD
4. VEEEGDVY

Result block:
["no binding", "no binding", "no binding", "no binding"]

// batch mode: one non-specific binding call value per listed entry
1. VRERGAWD
2. YRRRGAGV
3. VKAGDAWS
4. VKGRASGF
5. VRRRGSWV
6. DREEGAGS

Result block:
binds
binds
no binding
no binding
binds
no binding

// batch mode: one non-specific binding call value per listed entry
1. DTKGDSVS
2. YRARSAAV
3. FAAAGFVA
4. YTTKSDGV
5. FKARGSVD

Result block:
1: no binding; 2: binds; 3: binds; 4: no binding; 5: binds

// batch mode: one non-specific binding call value per listed entry
1. YEGRGDVA
2. FRRGSSGA
3. YRRRGYVD
4. YRARDDVF
5. YEGGGDGD
6. SKAKGSSD

Result block:
["no binding", "binds", "binds", "no binding", "no binding", "binds"]

// batch mode: one non-specific binding call value per listed entry
1. FRGRGSAD
2. DRGRDAWF
3. AATTDSGD
4. YRGAGAWV

Result block:
["binds", "no binding", "no binding", "binds"]

// batch mode: one non-specific binding call value per listed entry
1. VRAEASVV
2. FKKGSSGD
3. FKAGGSGA
4. YRERGALA
5. YKTGGDGV
6. AEEKGSGD
7. YARADDVF

Result block:
["binds", "binds", "binds", "binds", "no binding", "no binding", "no binding"]

// batch mode: one non-specific binding call value per listed entry
1. YRKGTAGD
2. VAARGAAV
3. SEARSAVY

Result block:
1. binds
2. no binding
3. no binding
